src = PubChem BioAssay (EPA / NIEHS)

- assay text: BSK_3C_uPAR: BioMAP Diversity Plus: 3C Assay for Urokinase-type plasminogen activator receptor (uPAR) Biomarker Activity (AID 2282998)
- settings: BioMAP 3C HUVEC, uPAR biomarker ELISA; actives raise or lower the signal
Active and inactive are the calls of the source. The calls were made as follows: active = hit-call score of the fitted dose curve at least 0.9, where 1 is the maximum; inactive = score below 0.9.
Classes used: true (1) (active), false (0) (inactive)

>  <compound>
CCN1CN(CC)CN(CC)C1

>  <answer label>
false (0)

$$$$
>  <compound>
c1ccc2c(c1)[nH]c1ccccc12

>  <answer label>
false (0)

$$$$
>  <compound>
CCCCCCCO

>  <answer label>
false (0)

$$$$
>  <compound>
C1CNCCN1

>  <answer label>
false (0)

$$$$
>  <compound>
Fc1ccc(Br)cc1

>  <answer label>
false (0)

$$$$
>  <compound>
CCNc1nc(NC(C)(C)C)nc(OC)n1

>  <answer label>
false (0)

$$$$
>  <compound>
CCCCCCCCCCCC(C)=O

>  <answer label>
true (1)

$$$$
>  <compound>
CC(C)CCCCCOC(=O)CS

>  <answer label>
false (0)

$$$$
>  <compound>
CC(C)C(=O)OCCc1ccccc1

>  <answer label>
false (0)

$$$$
>  <compound>
C=CCCCCCCCCC=O

>  <answer label>
false (0)

$$$$
>  <compound>
CCCCCCCCCCCC(=O)N(C)CC(=O)O

>  <answer label>
false (0)

$$$$
>  <compound>
CCC1(C)C(=O)N(Cl)C(=O)N1Cl (centres undefined)

>  <answer label>
false (0)

$$$$
>  <compound>
C=C(C)C(=O)OCCCCCCCCCCCC

>  <answer label>
false (0)

$$$$
>  <compound>
C=CC(=O)NCOCCCC

>  <answer label>
false (0)

$$$$
